# systemTested: recombinant human PDGF-BB (human, UniProt P01127 82-190)
# Sequence (P01127 82-190 limits assumed): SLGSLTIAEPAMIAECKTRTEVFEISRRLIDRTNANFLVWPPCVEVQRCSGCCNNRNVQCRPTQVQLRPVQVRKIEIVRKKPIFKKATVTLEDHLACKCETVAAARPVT
# assaySummary: cell-based or functional assay
measurementLabel: hPDGF-BB IC50 (nM), hPDGF-BB-induced NIH-3T3 cell proliferation

{"binder": "hBDI-5H1.17 (antibody, V domains shown) VH: EVTLKESGPALVKPTQTLTLTCTFSGFSLSTFGMGVGWIRQPPGKGLEWLANIWWDDDKYYNPSLKNRLTISKDTSNSQAVLTITNMDPVDTATYYCARISTGISSYYVMDAWGQGTTVTVSS VL: EFVLTQSPGTLSLSPGERATLSCERSSGDIGDSYVSWYQQKPGQAPRLVIYADDQRPSGIPDRFSGSGSGTDFTLTISRLEPEDFAVYYCQSYDINIDIVFGGGTKVEIK", "reportedValue": "< 10 nM"}
{"binder": "hBDI-9E8.6 (antibody, V domains shown) VH: EVTLRESGPALVKPTQTLTLTCTFSGFSLSTYGMGVGWIRQPPGKGLEWLANIWWDDDKYYNPSLKNRLTISKDTSKNQAVLTITNMDPVDTATYYCARIESIGTTYSFDYWGQGTMVTVSS VL: NFMLTQPHSVSESPGKTVTISCERSSGDIGDSYVSWYQQRPGSPPTNVIYADDQRPSGVPDRFSGSIDSSSNSASLTISGLKTEDEADYFCQSYDINIDIVFGGGTKLTVL", "reportedValue": "> 5 nM"}
{"binder": "hBDI-5H1.4 (antibody, V domains shown) VH: EVTLRESGPALVKPTQTLTLTCTFSGFSLSTFGMGVGWIRQPPGKALEWLANIWWDDDKYYNPSLKNRLTISKDTSKNQVVLTMTNMDPVDTATYYCARISTGISSYYVMDAWGQGTTVTVSS VL: EFVLTQSPGTLSLSPGERATLSCERSSGDIGDTYVSWYQQKPGQAPRLVIYGNDQRPSGIPDRFSGSGSGTDFTLTISRLEPEDFAVYYCQSYDSDIDIVFGGGTKVEIK", "reportedValue": "< 10 nM"}
